Measured z-score of subpopulation abundance of individual entries
- Tested on: Saccharomyces cerevisiae BY4741 SeMeCo community
- Run Description: z-score of subpopulation abundance vs DMSO median, subpopulation auxotrophic for HLM; higher = larger share of this subpopulation than in DMSO controls
- Stated Conditions: 10 µM; 24 h; SM minimal medium; subpopulation (auxotrophy): HLM

{"Compound": "CCN(CC)CCOC(=O)c1ccc(N)cc1", "z-score of subpopulation abundance": -1.03}
{"Compound": "CCn1cc(C(=O)O)c(=O)c2ccc(C)nc21", "z-score of subpopulation abundance": -0.21}
{"Compound": "CCCN1CCCC[C@H]1C(=O)Nc1c(C)cccc1C", "z-score of subpopulation abundance": -0.22}
{"Compound": "COCCCN1CCC(NC(=O)c2cc(Cl)c(N)c3c2OCC3)CC1 [Prucalopride]", "z-score of subpopulation abundance": 0.6}
{"Compound": "O=C(O)CCC(=O)OC[C@@H](NC(=O)C(Cl)Cl)[C@H](O)c1ccc([N+](=O)[O-])cc1 [Chloramphenicol sodium succinate]", "z-score of subpopulation abundance": 0.81}
{"Compound": "CC/C(=C(/CC)c1ccc(O)cc1)c1ccc(O)cc1", "z-score of subpopulation abundance": -0.67}
{"Compound": "Cc1cccc(C)c1NC(=O)C1CCCCN1C (centres undefined) [Mepivacaine]", "z-score of subpopulation abundance": -0.7}
{"Compound": "COc1ccc(C2CNC(=O)C2)cc1OC1CCCC1 (stereo not drawn) [S- (+)-Rolipram]", "z-score of subpopulation abundance": -0.94}
{"Compound": "COC(=O)C1=C(C)NC(C)=C(C(=O)OCCN2CCN(C(c3ccccc3)c3ccccc3)CC2)C1c1cccc([N+](=O)[O-])c1 (centres undefined) [Manidipine]", "z-score of subpopulation abundance": 0.64}

====

- System: Saccharomyces cerevisiae BY4741 SeMeCo community
- Run Description: z-score of subpopulation abundance vs DMSO median, subpopulation auxotrophic for HL; higher = larger share of this subpopulation than in DMSO controls
- Stated Conditions: 10 µM; 24 h; SM minimal medium; subpopulation (auxotrophy): HL
Structures can show the parent of a compound that is named as a salt.
Output: class label from z-score of subpopulation abundance. Mapping: lowest = under -0.5, middle = from -0.5 up to 0.2, highest = 0.2 and over

{"Compound": "C#CCC(Cc1cnc2nc(N)nc(N)c2n1)c1ccc(C(=O)N[C@@H](CCC(=O)O)C(=O)O)cc1 (stereo partly specified) [Pralatrexate]", "Class Name": "highest"}
{"Compound": "Cc1cccc(C)c1OCC(C)N (stereo unspecified) [Mexiletine HCl]", "Class Name": "lowest"}
{"Compound": "CCCCOC(=O)c1ccc(O)cc1 [Butylparaben]", "Class Name": "lowest"}
{"Compound": "Cc1c(C)c2c(c(C)c1O)CCC(C)(CCCC(C)CCCC(C)CCCC(C)C)O2 (stereo unspecified) [Vitamin E]", "Class Name": "lowest"}
{"Compound": "COCC(=O)Nc1cc(Sc2ccccc2)ccc1N=C(NC(=O)OC)NC(=O)OC [Febantel]", "Class Name": "highest"}
{"Compound": "O=c1ccn(C2CC(O)C(CO)O2)c(=O)[nH]1 (stereo unspecified) [2-deoxyuridine]", "Class Name": "highest"}
{"Compound": "O=C(O)C[C@H](O)C[C@H](O)/C=C/c1c(C2CC2)nc2ccccc2c1-c1ccc(F)cc1 [Pitavastatin Calcium]", "Class Name": "highest"}
{"Compound": "CC(=O)[C@H]1CC[C@H]2[C@@H]3CC=C4C[C@@H](O)CC[C@]4(C)[C@H]3CC[C@]12C [Pregnenolone]", "Class Name": "highest"}
{"Compound": "O=C(CCCN1CCC(O)(c2ccc(Cl)cc2)CC1)c1ccc(F)cc1 [Haloperidol]", "Class Name": "middle"}
{"Compound": "CC/C=C(\\C(=O)N[C@@H]1C(=O)N2C(C(=O)OCOC(=O)C(C)(C)C)=C(COC(N)=O)CS[C@H]12)c1csc(N)n1 [Cefcapene Pivoxil Hydrochloride]", "Class Name": "middle"}
{"Compound": "CC1(C)S[C@@H]2[C@H](NC(=O)[C@H](N)c3ccc(O)cc3)C(=O)N2[C@H]1C(=O)O [Amoxicillin Sodium]", "Class Name": "lowest"}
{"Compound": "Cn1c(=O)c2c(ncn2CC(O)CO)n(C)c1=O (stereo unspecified) [Dyphylline]", "Class Name": "lowest"}
{"Compound": "CN[C@H](CC(C)C)C(=O)N[C@H]1C(=O)N[C@@H](CC(N)=O)C(=O)N[C@H]2C(=O)N[C@H]3C(=O)N[C@H](C(=O)N[C@H](C(=O)O)c4cc(O)cc(O)c4-c4cc3ccc4O)[C@H](O)c3ccc(c(Cl)c3)Oc3cc2cc(c3O[C@@H]2O[C@H](CO)[C@@H](O)[C@H](O)[C@H]2O[C@H]2C[C@](C)(N)[C@H](O)[C@H](C)O2)Oc2ccc(cc2Cl)[C@H]1O [Vancomycin HCl]", "Class Name": "middle"}
{"Compound": "C[C@@H](O)[C@H]1C(=O)N2C(C(=O)OCOC(=O)C(C)(C)C)=C(SC3CN(C4=NCCS4)C3)[C@H](C)[C@H]12 [Tebipenem Pivoxil]", "Class Name": "middle"}
{"Compound": "CC(=O)NS(=O)(=O)c1ccc(N)cc1 [Sulfacetamide Sodium]", "Class Name": "highest"}
{"Compound": "CN1CCC(=C2c3ccccc3CCc3sccc32)CC1 [Pizotifen Malate]", "Class Name": "middle"}
{"Compound": "CC(C)COc1ccc(CNC(=O)N(Cc2ccc(F)cc2)C2CCN(C)CC2)cc1 [Pimavanserin]", "Class Name": "highest"}
{"Compound": "CC1=C(C(=O)O)N2C(=O)[C@@H](NC(=O)[C@H](N)C3=CCC=CC3)[C@H]2SC1 [Cephradine monohydrate]", "Class Name": "lowest"}
{"Compound": "Cc1cnc(NC(=O)C2=C(O)c3ccccc3S(=O)(=O)N2C)s1 [Meloxicam]", "Class Name": "middle"}
{"Compound": "NC1CCN(c2nc3c(cc2F)c(=O)c(C(=O)O)cn3-c2ccc(F)cc2F)C1 (stereo unspecified) [Tosufloxacin p-Toluenesulfonate Hydrate]", "Class Name": "lowest"}
{"Compound": "OCCOCCN1CCN(C2=Nc3ccccc3Sc3ccccc32)CC1 [Quetiapine Fumarate]", "Class Name": "middle"}
{"Compound": "CN(CCOc1ccc(NS(C)(=O)=O)cc1)CCc1ccc(NS(C)(=O)=O)cc1 [Dofetilide]", "Class Name": "middle"}
{"Compound": "Cc1nnc(SCC2=C(C(=O)O)N3C(=O)[C@@H](NC(=O)Cn4cc(Cl)c(=O)c(Cl)c4)[C@H]3SC2)s1 [Cefazedone]", "Class Name": "lowest"}
{"Compound": "CC[C@@H]1C(=O)OC[C@@H]1Cc1cncn1C [Pilocarpine HCl]", "Class Name": "middle"}
{"Compound": "OCCN1CCN(CCCN2c3ccccc3Sc3ccc(C(F)(F)F)cc32)CC1 [Fluphenazine dihydrochloride]", "Class Name": "highest"}
{"Compound": "CCCCNC(=O)NS(=O)(=O)c1ccc(C)cc1 [Tolbutamide]", "Class Name": "lowest"}
{"Compound": "C=CC1=C(C(=O)O)N2C(=O)[C@@H](NC(=O)/C(=N\\OCC(=O)O)c3csc(N)n3)[C@H]2SC1 [Cefixime]", "Class Name": "middle"}
{"Compound": "Cc1nc2n(c(=O)c1CCN1CCC(c3noc4cc(F)ccc34)CC1)CCCC2O (stereo unspecified) [Paliperidone]", "Class Name": "lowest"}
{"Compound": "C[C@@H](c1ncncc1F)[C@](O)(Cn1cncn1)c1ccc(F)cc1F [Voriconazole]", "Class Name": "highest"}
{"Compound": "N[C@@H]1CN(c2c(F)cc3c(=O)c(C(=O)O)cn([C@@H]4C[C@@H]4F)c3c2Cl)CC12CC2 [Sitafloxacin Hydrate]", "Class Name": "middle"}
